Exercise: for every item that follows, state its recorded pIC50.
study target: CXCR1 receptor (Homo sapiens (Human), UniProt P25024)
Sequence (P25024 whole entry): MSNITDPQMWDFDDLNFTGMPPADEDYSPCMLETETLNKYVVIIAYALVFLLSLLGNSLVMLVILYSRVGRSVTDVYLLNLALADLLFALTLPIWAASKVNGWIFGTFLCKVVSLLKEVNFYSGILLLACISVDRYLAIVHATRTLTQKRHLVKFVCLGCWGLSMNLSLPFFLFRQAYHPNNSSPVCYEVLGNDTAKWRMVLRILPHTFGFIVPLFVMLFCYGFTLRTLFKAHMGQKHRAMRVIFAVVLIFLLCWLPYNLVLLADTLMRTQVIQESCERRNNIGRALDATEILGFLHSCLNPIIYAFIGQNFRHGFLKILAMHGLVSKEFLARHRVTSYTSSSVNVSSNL
test summary: β-arrestin recruitment test, U2OS hCXCR1 β-arrestin cells stimulated with CXCL8
Format: cell-based
condition description: CXCL8 10 nM, class symbols
pIC50: −log10 of the molar value.

Some compounds with recorded pIC50:
CC[C@@H](Nc1c(Nc2cccc(S(C)(=O)=NC)c2O)c(=O)c1=O)c1ccccn1 (single isomer, unassigned; (-)) [Example 15] :: ≤ 6.70
CC[C@@H](Nc1c(Nc2ccc(Cl)c(S(C)(=N)=O)c2O)c(=O)c1=O)c1ccc(C)o1 (stereo partly drawn) :: > 6.70
CCC(CC)Nc1c(Nc2cccc(S(C)(=O)=NC)c2O)c(=O)c1=O (single isomer, unassigned; (-)) :: ≤ 6.70

Report pIC50 for every entry below.
1. CC[C@@H](Nc1c(Nc2cccc(S(C)(=O)=NC)c2O)c(=O)c1=O)c1ccccn1 (single isomer, unassigned; (-)) [Example 14]
2. CN=S(C)(=O)c1c(Cl)ccc(Nc2c(N[C@@H](c3ccc(C)o3)[C@H]3CCCS3)c(=O)c2=O)c1O (stereo partly drawn)
3. CC[C@@H](Nc1c(Nc2ccc(Cl)c(S(C)(=O)=NC)c2O)c(=O)c1=O)c1ccc(C)o1 (single isomer, unassigned; (+))

Output:
> 6.70
> 6.70
> 6.70

###

study target: CXCR1 receptor (Homo sapiens (Human), UniProt P25024)
test summary: β-arrestin recruitment test, U2OS hCXCR1 β-arrestin cells stimulated with CXCL8
Assay type: cell-based
condition description: CXCL8 10 nM, class symbols
endpoint name: IC50

CC[C@@H](Nc1c(Nc2cccc(S(C)(=O)=NC)c2O)c(=O)c1=O)c1ccc(C)o1 (single isomer, unassigned; (+)) [Example 17] :: ≥ 200 nM
CC[C@@H](Nc1c(Nc2ccc(Cl)c(S(C)(=O)=Nc3ccncc3)c2O)c(=O)c1=O)c1ccc(C)o1 (stereo partly shown) :: ≥ 200 nM
CC[C@@H](Nc1c(Nc2ccc(Cl)c(S(C)(=O)=NCCOC)c2O)c(=O)c1=O)c1ccc(C)o1 (stereo partly shown) :: ≥ 200 nM
CC[C@@H](Nc1c(Nc2ccc(Cl)c(S(C)(=O)=NC)c2O)c(=O)c1=O)c1ccccn1 (single isomer, unassigned; (+)) [Example 13] :: ≥ 200 nM
CCC(CC)Nc1c(Nc2ccc(Cl)c(S(C)(=O)=NCCN(C)C)c2O)c(=O)c1=O (stereo not shown) :: ≥ 200 nM
CCC(CC)Nc1c(Nc2ccc(Cl)c(S(C)(=O)=Nc3ccncc3)c2O)c(=O)c1=O (stereo not shown) :: ≥ 200 nM
CN=S(C)(=O)c1c(Cl)ccc(NC(=O)Nc2cccc(F)c2Cl)c1O (stereo not shown) :: ≥ 200 nM
CS(=N)(=O)c1c(Cl)ccc(NC(=O)Nc2cccc(F)c2Cl)c1O (stereo not shown) :: ≥ 200 nM
CC[C@@H](Nc1c(Nc2cccc(S(C)(=O)=NC)c2O)c(=O)c1=O)c1ccc(C)o1 (stereo partly shown) [Example 8] :: < 200 nM

Please look at the following molecule next.
Input: Fill in: IC50 of CC[C@@H](Nc1c(Nc2ccc(Cl)c(S(C)(=O)=NC)c2O)c(=O)c1=O)c1ccccn1 (single isomer, unassigned; (-)) [Example 12] is ___
Output: < 200 nM

###

System: human neutrophils
test summary: Neutrophil migration (chemotaxis assay, Transwell, IL-8)
Type: cell-based
condition description: Homo sapiens, Neutrophil; 10 nM IL-8, 1 hour incubation; class symbols; read-out: Migration of human neutrophils IC50
endpoint name: IC50

For every item in the list below, what is its measured IC50?
1. CC[C@@H](Nc1c(Nc2cccc(S(C)(=O)=NC)c2O)c(=O)c1=O)c1ccc(C)o1 (some centres unmarked) [Example 8]
2. CC[C@@H](Nc1c(Nc2cccc(S(C)(=O)=NC)c2O)c(=O)c1=O)c1ccc(C)o1 (single isomer, unassigned; (+)) [Example 16]
3. CCC(CC)Nc1c(Nc2cccc(S(C)(=O)=NC)c2O)c(=O)c1=O (single isomer, unassigned; (-)) [Example 18]
4. CC[C@@H](Nc1c(Nc2cccc(S(C)(=O)=NC)c2O)c(=O)c1=O)c1ccccn1 (single isomer, unassigned; (-)) [Example 14]
5. CC[C@@H](Nc1c(Nc2ccc(Cl)c(S(C)(=N)=O)c2O)c(=O)c1=O)c1ccc(C)o1 (some centres unmarked) [Example 1]

Output:
1. ≥ 300 nM
2. ≥ 300 nM
3. ≥ 300 nM
4. ≥ 300 nM
5. < 300 nM

Provenance of the data: patent US10647706B2
